Exercise: for every item that follows, state its recorded TGI.
System: NCI-H226 lung
Experiment: NCI tumour cell line growth inhibition, 48 h
Provide the reading as a plain figure in µM.

**Query** Checklist item: TGI tested on NCI-H226 lung, entry CC(=O)OCC1OC(OC2CC3C(C)(C)C(=O)CC[C@]3(C)C3CC[C@]45C[C@]4(CCC5[C@@H](C)CC(O)C(O)C(C)(C)O)[C@]23C)C(O)C(O)C1O (some centres undefined) , value?
**Result** 30.6

**Query** Checklist item: TGI tested on NCI-H226 lung, entry CC1=C/C(=C(/c2ccc(O)c(C)c2)c2ccccc2C(=O)O)C=CC1=O , value?
**Result** 44.5

**Query** Checklist item: TGI tested on NCI-H226 lung, entry O=C(CN/C=C\C(=O)c1cc(Cl)ccc1Cl)c1ccccc1 , value?
**Result** 58.8

**Query** Checklist item: TGI tested on NCI-H226 lung, entry COc1cc([C@@H]2c3cc4c(cc3[C@@H](NC(=O)c3ccc([N+](=O)[O-])cc3)C3COC(=O)[C@@H]32)OCO4)cc(OC)c1O (some centres undefined) , value?
**Result** 1.82

---

Tested on: OVCAR-5 ovarian
Assay: NCI tumour cell line growth inhibition, 48 h
Exercise: for every item that follows, state its recorded TGI.

**Query** Checklist item: TGI tested on OVCAR-5 ovarian, entry CC(=O)O[C@@H]1CC(=O)O[C@@H]2C[C@@H](CC/C(Cl)=C/C/C=C\1C)O[C@@H]2CO , value?
**Result** > 25 µM

**Query** Checklist item: TGI tested on OVCAR-5 ovarian, entry COc1ccc(N2C(=O)CC(c3c[nH]c4ccccc34)C2=O)cc1 (stereo unspecified) , value?
**Result** > 100 µM

**Query** Checklist item: TGI tested on OVCAR-5 ovarian, entry Nc1nc(Cl)cc(NCC2(CO)CCC(OCc3ccccc3)C2)n1 (stereo unspecified) , value?
**Result** > 100 µM

**Query** Checklist item: TGI tested on OVCAR-5 ovarian, entry N#CC(C#N)=Cc1ccc(-c2ccc(-c3nc4ccccc4s3)cc2)s1 , value?
**Result** 30.5 µM

**Query** Checklist item: TGI tested on OVCAR-5 ovarian, entry O=C1NCN(c2ccccc2)C12CCN(CCCSc1ccc(F)cc1)CC2 , value?
**Result** > 100 µM

**Query** Checklist item: TGI tested on OVCAR-5 ovarian, entry Cc1ccccc1Nc1cn(CCOc2ccccc2)c(=O)n(CCOc2ccccc2)c1=O , value?
**Result** > 100 µM

**Query** Checklist item: TGI tested on OVCAR-5 ovarian, entry Cc1c(C)c2ccc(O)cc2[nH]c1=O , value?
**Result** > 100 µM

**Query** Checklist item: TGI tested on OVCAR-5 ovarian, entry COc1ccc(C2C3=C(CCCC3=O)N(c3ccccc3)C3=C2C(=O)CCC3)cc1 , value?
**Result** > 100 µM

**Query** Checklist item: TGI tested on OVCAR-5 ovarian, entry COc1ccc(/C=C/C(=O)c2ccc(NC(=O)CSc3nnc(-c4cc(OC)c(OC)c(OC)c4)o3)cc2)cc1 , value?
**Result** 3.3 µM

**Query** Checklist item: TGI tested on OVCAR-5 ovarian, entry C[C@H]1[C@H](C)CC[C@]2(C(=O)O)CC[C@]3(C)C(=CC[C@@H]4[C@@]5(C)CC[C@H](OC(=O)/C=C\c6ccc(O)cc6)C(C)(C)[C@@H]5CC[C@]43C)[C@H]12 , value?
**Result** 27 µM

**Query** Checklist item: TGI tested on OVCAR-5 ovarian, entry O=C1/C(=c2\c3ccccc3n3c(=O)c4ccccc4nc23)Nc2ccccc21 , value?
**Result** > 100 µM

**Query** Checklist item: TGI tested on OVCAR-5 ovarian, entry O=C(O)C#Cc1ccc([N+](=O)[O-])cc1 , value?
**Result** > 100 µM

**Query** Checklist item: TGI tested on OVCAR-5 ovarian, entry COc1ccc2c(c1)c(=O)oc1cc(OC/C(=N\O)c3ccc(F)cc3)ccc12 , value?
**Result** > 100 µM

**Query** Checklist item: TGI tested on OVCAR-5 ovarian, entry O=CNc1ccc2c(c1)Cc1cc([N+](=O)[O-])ccc1-2 , value?
**Result** > 100 µM

**Query** Checklist item: TGI tested on OVCAR-5 ovarian, entry CO/N=C/c1c(-c2ccc(Cl)cc2)c(/C=N/OC)n2c1sc1ccccc12 , value?
**Result** > 100 µM

**Query** Checklist item: TGI tested on OVCAR-5 ovarian, entry CC(C)(C)C1=NN=C2c3ccccc3C(=O)C21 (stereo unspecified) , value?
**Result** > 100 µM

**Query** Checklist item: TGI tested on OVCAR-5 ovarian, entry COC(=O)c1cc(/C=C2\Cc3cc4c(cc3C2=O)CCC4)cc2c1CCC2 , value?
**Result** > 100 µM

**Query** Checklist item: TGI tested on OVCAR-5 ovarian, entry Cc1ccc(C2CC(c3cccc(Nc4ccncc4)c3)=NN2c2ccc(Cl)cc2)cc1 (stereo unspecified) , value?
**Result** 2.99 µM

**Query** Checklist item: TGI tested on OVCAR-5 ovarian, entry C/C(=C\c1ccc2c(c1)OCO2)[N+](=O)[O-] , value?
**Result** 15.1 µM

**Query** Checklist item: TGI tested on OVCAR-5 ovarian, entry Nc1nc(Cl)cc(NCC2(CO)CC(Cc3ccccc3)C2)n1 (stereo unspecified) , value?
**Result** > 100 µM

**Query** Checklist item: TGI tested on OVCAR-5 ovarian, entry OCCCNC(=S)Nc1ccc(-c2nc3ccccc3s2)cc1 , value?
**Result** 58.3 µM

---

System: KM12 colon
Experiment: NCI tumour cell line growth inhibition, 48 h
attribute-measured: TGI

**Query** Need TGI, item O=C1/C(=c2\c3ccccc3n3c(=O)c4ccccc4nc23)Nc2ccccc21
**Result** > 100 µM

**Query** Need TGI, item CC[C@@H]1C[C@@H](O)[C@@H]2[C@H](O)[C@H](O)CN2C1
**Result** > 100 µM

**Query** Need TGI, item O=C1/C(=C/c2cccc([N+](=O)[O-])c2)N=C(c2ccccc2)N1c1ccc2c(c1)Sc1cc(N3C(=O)/C(=C/c4cccc([N+](=O)[O-])c4)N=C3c3ccccc3)ccc1N2
**Result** > 100 µM

**Query** Need TGI, item O=C(O)C1CCCN1Cc1ccc2c(c1)OCO2 (stereo unspecified)
**Result** > 100 µM

**Query** Need TGI, item CC1OC2OC3C(OCC(O)C3O)OC(=O)[C@]34CCC(C)(C)CC3C3=CCC5[C@@]6(C)C[C@H](O)[C@H](OC7OC(CO)C(O)C(O)C7OC7OC(COC(=O)CC(C)(O)CC(=O)OC1C(O)C2O)C(O)C(O)C7O)[C@@](C)(CO)C6CC[C@@]5(C)[C@]3(C)CC4 (stereo partly specified)
**Result** 2.89 µM

**Query** Need TGI, item CC1(c2nc3cc(Cl)c(Cl)cc3[nH]2)CCC(C(=O)O)C(C)(C)O1 (stereo unspecified)
**Result** > 100 µM

---

Exercise: for every item that follows, state its recorded TGI.
Test system: DMS 273 small cell lung
Test: NCI tumour cell line growth inhibition, 48 h

**Query** Need TGI, item COc1cc([C@@H]2c3cc4c(cc3[C@@H](NC(=O)c3ccc([N+](=O)[O-])cc3)C3COC(=O)[C@@H]32)OCO4)cc(OC)c1O (stereo not given in full)
**Result** 3.54 µM

**Query** Need TGI, item O=S(=O)(c1ccccc1)C1CN(Cc2ccccc2)CCN(Cc2ccccc2)C1
**Result** > 100 µM

**Query** Need TGI, item O=[N+]([O-])c1ccc(C2N3CCCCC3[C@@H]3c4[nH]c5ccccc5c4CCN23)cc1 (stereo not given in full)
**Result** > 100 µM

**Query** Need TGI, item C=CCn1c(=S)sc2c(=O)[nH]cnc21
**Result** > 100 µM

**Query** Need TGI, item Cc1cc2c(=O)cc(-c3ccc(C(=O)O)cc3)oc2c(C(=O)O)c1C
**Result** > 100 µM

---

Tested on: NCI-H23 lung
Assay: NCI tumour cell line growth inhibition, 48 h
attribute-measured: TGI (µM)
Provide the reading as a plain figure in µM.

**Query** Need TGI, item O=C(NC1CCN(Cc2ccccc2)CC1)c1ccccc1I
**Result** 72.1

**Query** Need TGI, item O=C1/C(=C/c2cccc([N+](=O)[O-])c2)N=C(c2ccccc2)N1c1ccc2c(c1)Sc1cc(N3C(=O)/C(=C/c4cccc([N+](=O)[O-])c4)N=C3c3ccccc3)ccc1N2
**Result** 92.4

**Query** Need TGI, item N=c1c2ccccc2nc2oc3ccc(Cl)cc3n12
**Result** 34.2

**Query** Need TGI, item Cc1ccc(S(=O)(=O)N/N=C2/CC[C@H](C(C)(C)C)C[C@@H]2C)cc1
**Result** 36.8

**Query** Need TGI, item COc1ccc(-n2nnnc2C2(Nc3ccccc3)CCN(Cc3ccccc3)CC2)cc1
**Result** 57.9

**Query** Need TGI, item CN(C)CCOc1cccc(NC2=C(Cl)C(=O)C(Nc3cccc(OCCN(C)C)c3)=C(Cl)C2=O)c1
**Result** 1.35

**Query** Need TGI, item O=C(Nc1ccc(Cl)cc1Cl)/C(Cl)=C1/Sc2ccccc2NC1=O
**Result** 55

**Query** Need TGI, item O=C(O)c1cn(C2CC2)c2cc(N3CCN(C(=O)Nc4nc(-c5ccc(Cl)cc5)cs4)CC3)c(F)cc2c1=O
**Result** 39.5
